# inhibition per record follows
# SYSTEM_NAME: Tyrosine-protein kinase Mer (Homo sapiens)
# STATED_CONDITIONS: at 10 µM
Note: unit % is implicit; provide only the numeric part.

Fc1ccc(-c2ncn(C3CCNCC3)c2-c2ccnc(Oc3ccc4c(c3)OCO4)n2)cc1
6
CC1=C(C(=O)Nc2ccc3[nH]nc(C)c3c2)C(c2ccc(C(F)(F)F)cc2)CC(=O)N1 (stereo not drawn)
44
CCn1c(-c2nonc2N)nc2ccccc21
59
COc1cc(/C=N/Nc2ncnc3[nH]ncc23)ccc1O
6
C[C@@H](Oc1cc(-n2cnc3ccc(OC[C@@H](O)CO)cc32)sc1C(N)=O)c1ccccc1Cl
-1

Form field inhibition for item `Cc1ccc(C(=O)NC(C)C)cc1-c1ccc(C(=O)NCC2CC2)cc1` on Tyrosine-protein kinase Mer (Homo sapiens): -2

Form field inhibition for item `COc1cc2c(cc1Nc1nc(Nc3ccsc3C(N)=O)c3cc[nH]c3n1)N(C(=O)CN(C)C)CCC2(C)C` on Tyrosine-protein kinase Mer (Homo sapiens): 68

Form field inhibition for item `CN1CCC(n2cnc(-c3ccc(F)cc3)c2-c2ccnc(Nc3ccccc3)n2)CC1` on Tyrosine-protein kinase Mer (Homo sapiens): -1

Form field inhibition for item `COC(=O)Nc1nc2ccc(Sc3ccc(NC(=O)Nc4cc(C(F)(F)F)ccc4F)cc3)cc2[nH]1` on Tyrosine-protein kinase Mer (Homo sapiens): 21

---

# inhibition per record follows
# SYSTEM_NAME: UniProtKB Q12866
# STATED_CONDITIONS: at 10 µM
Note: unit % is implicit; provide only the numeric part.

Example compounds with recorded inhibition:
CS(=O)(=O)CCNCc1cc(-c2cc3c(Nc4ccc(OCc5cccc(F)c5)c(Cl)c4)ncnc3s2)cs1
-5
Cc1cc(Cl)cc2c1NC(=O)C2=NNc1ccc(S(N)(=O)=O)cc1
63
COc1cc2ncnc(Nc3ccc4c(cnn4Cc4ccccc4)c3)c2cc1OC
5
CS(=O)(=O)Nc1ccc(N/C=C2\C(=O)Nc3ccccc32)cc1
2

Entry `COc1ccc(-c2ccncc2)cc1C(N)=O` — recorded inhibition = 3

Entry `O=C(O[C@H]1CN[C@H](C#Cc2cc3ncnc(Nc4ccc5c(cnn5Cc5ccccc5)c4)c3s2)C1)N1CCOCC1` — recorded inhibition = 15

Entry `COc1cc(C=NNc2ncnc3c2cnn3-c2ccccc2)ccc1O` — recorded inhibition = 0

Entry `COc1ccc(-c2coc3ncnc(N)c23)cc1` — recorded inhibition = -3

Entry `O=C(Nc1n[nH]c2nnc(-c3cccnc3)cc12)C1CC1` — recorded inhibition = -7

---

# inhibition per record follows
# SYSTEM_NAME: Tyrosine-protein kinase Mer (Homo sapiens) (UniProt Q12866)
# STATED_CONDITIONS: at 10 µM
Note: unit % is implicit; provide only the numeric part.

Example molecules with recorded inhibition:
O=C1NC(=O)C(N2CCc3ccccc32)=C1c1ccc(Cl)cc1
-6
Cc1nnc(-c2ccc(C)c(-c3ccc(C(=O)NCc4ccc(Cl)cc4)cc3)c2)o1
92
O=C1NC(=O)C(c2ccccc2Cl)=C1Nc1cccc(O)c1
18
NC(=O)c1cccc(Nc2nccc(Nc3cccc4[nH]ncc34)n2)c1
79

Form field inhibition for item CC1=C(C(=O)Nc2ccc3[nH]ncc3c2)C(c2ccc(F)cc2)N=C(c2ccc(C(F)(F)F)nc2)N1 (centres undefined) on Tyrosine-protein kinase Mer (Homo sapiens) (UniProt Q12866): -4

Form field inhibition for item `COc1cc2ncn(-c3cc(OCc4ccccc4Cl)c(C(N)=O)s3)c2cc1OC` on Tyrosine-protein kinase Mer (Homo sapiens) (UniProt Q12866): 83

Form field inhibition for item `CN(C)CCCNc1nccc(-c2c(-c3ccc(F)cc3)nn3cc(C(F)(F)F)ccc23)n1` on Tyrosine-protein kinase Mer (Homo sapiens) (UniProt Q12866): 0

Form field inhibition for item `Cc1ccc(Nc2ccnc(Nc3cccc(C(N)=O)c3)n2)cc1O` on Tyrosine-protein kinase Mer (Homo sapiens) (UniProt Q12866): 93

Form field inhibition for item `Nc1nc(-c2cccc(Cl)c2)c(-c2ccc3ncccc3n2)s1` on Tyrosine-protein kinase Mer (Homo sapiens) (UniProt Q12866): 1

---

# inhibition per record follows
# SYSTEM_NAME: Tyrosine-protein kinase Mer (Homo sapiens)
# Sequence (whole entry): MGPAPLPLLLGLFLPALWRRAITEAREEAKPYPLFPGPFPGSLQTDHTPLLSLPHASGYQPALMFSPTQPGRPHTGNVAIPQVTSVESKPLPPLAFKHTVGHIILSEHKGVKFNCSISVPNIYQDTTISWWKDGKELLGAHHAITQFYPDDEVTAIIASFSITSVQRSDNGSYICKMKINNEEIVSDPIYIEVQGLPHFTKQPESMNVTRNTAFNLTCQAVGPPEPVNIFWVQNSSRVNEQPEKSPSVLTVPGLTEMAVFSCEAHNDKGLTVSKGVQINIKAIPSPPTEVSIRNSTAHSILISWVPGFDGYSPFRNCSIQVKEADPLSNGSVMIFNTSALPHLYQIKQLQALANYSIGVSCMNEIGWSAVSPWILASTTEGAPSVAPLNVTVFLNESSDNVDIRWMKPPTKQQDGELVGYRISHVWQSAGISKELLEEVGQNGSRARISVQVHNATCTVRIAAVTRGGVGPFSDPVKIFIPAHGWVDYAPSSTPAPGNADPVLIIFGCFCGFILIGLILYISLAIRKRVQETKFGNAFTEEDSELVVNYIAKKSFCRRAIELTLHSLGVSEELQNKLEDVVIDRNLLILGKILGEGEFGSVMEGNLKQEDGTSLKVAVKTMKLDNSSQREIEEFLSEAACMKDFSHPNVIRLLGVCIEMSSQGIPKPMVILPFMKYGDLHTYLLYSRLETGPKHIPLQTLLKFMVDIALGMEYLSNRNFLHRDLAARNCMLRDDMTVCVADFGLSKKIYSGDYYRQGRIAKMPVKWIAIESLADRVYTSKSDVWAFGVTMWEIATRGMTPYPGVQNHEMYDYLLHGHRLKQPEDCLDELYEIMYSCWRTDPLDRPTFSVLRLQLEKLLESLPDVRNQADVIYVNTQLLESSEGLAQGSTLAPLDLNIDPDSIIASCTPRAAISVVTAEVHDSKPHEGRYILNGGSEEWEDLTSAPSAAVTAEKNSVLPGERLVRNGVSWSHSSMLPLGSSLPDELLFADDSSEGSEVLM
# STATED_CONDITIONS: at 10 µM
Note: unit % is implicit; provide only the numeric part.

Example molecules with recorded inhibition:
Cc1c2ccc(N(C)c3ccnc(Nc4cccc(S(N)(=O)=O)c4)n3)cc2nn1C
-9
CC1=C(C(=O)Nc2cc(Cl)c3[nH]ncc3c2)C(c2ccc(C(F)(F)F)cc2)CC(=O)N1 (stereo not given)
18
c1ccc(Nc2ncc(-c3ccccc3)o2)cc1
0
Cc1ccc(O)cc1Nc1ccnc2ccc(S(C)(=O)=O)cc12
6

Okay, next one:
Entry `CNC(=O)Oc1cc(C)c(/C=C/c2cncc(C(=O)NC)c2)c(C)c1` — recorded inhibition = 48
